target: Melanocortin receptor 3 (Mus musculus, UniProt P33033); assay: Effective concentration for mouse Melanocortin-3 receptor
Sequence (P33033 whole entry): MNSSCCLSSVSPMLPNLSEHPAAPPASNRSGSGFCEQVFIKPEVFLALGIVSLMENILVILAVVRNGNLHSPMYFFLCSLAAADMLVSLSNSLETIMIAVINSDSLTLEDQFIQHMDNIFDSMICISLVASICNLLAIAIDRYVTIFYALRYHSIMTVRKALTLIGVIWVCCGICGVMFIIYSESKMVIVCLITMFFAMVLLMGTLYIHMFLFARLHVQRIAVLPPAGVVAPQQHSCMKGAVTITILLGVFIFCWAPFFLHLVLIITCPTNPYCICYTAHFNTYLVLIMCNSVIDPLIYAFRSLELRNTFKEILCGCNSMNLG
Measured EC50 by item
Enter your answer as a number in µM; do not include the unit.

Consider the worked cases shown below.
{"SMILES INPUT": "C[C@@H]1NC(=O)[C@H](CC(N)=O)NC(=O)[C@H](C)NC(=O)[C@H](CCCN=C(N)N)NC(=O)[C@@H](Cc2ccccc2)NC(=O)[C@H](Cc2c[nH]cn2)NC(=O)[C@@H](NC(=O)[C@@H](N)Cc2ccc(O)cc2)CC(=O)N([C@@H](Cc2ccc(O)cc2)C(N)=O)[C@@](C)(C(=O)O)NC(=O)[C@H](Cc2ccccc2)NC1=O", "EC50, µM": 13.5}
{"SMILES INPUT": "C[C@@H]1NC(=O)[C@H](CC(N)=O)NC(=O)[C@@H]2Cc3ccccc3CN2C(=O)[C@H](CCCN=C(N)N)NC(=O)[C@@H](Cc2ccccc2)NC(=O)[C@H](Cc2c[nH]cn2)NC(=O)[C@@H](NC(=O)[C@@H](N)Cc2ccc(O)cc2)CC(=O)N([C@@H](Cc2ccc(O)cc2)C(N)=O)[C@@](C)(C(=O)O)NC(=O)[C@H](Cc2ccccc2)NC1=O", "EC50, µM": 3.4}

Next:
Give its EC50 value. Item: C[C@@H]1NC(=O)[C@H](CC(N)=O)NC(=O)[C@H](Cc2ccc(-c3ccccc3)cc2)NC(=O)[C@H](CCCN=C(N)N)NC(=O)[C@@H](Cc2ccccc2)NC(=O)[C@H](Cc2c[nH]cn2)NC(=O)[C@@H](NC(=O)[C@@H](N)Cc2ccc(O)cc2)CC(=O)N([C@@H](Cc2ccc(O)cc2)C(N)=O)[C@@](C)(C(=O)O)NC(=O)[C@H](Cc2ccccc2)NC1=O
0.45

====

Below, each entry is listed alongside its reported Selectivity ratio.
organism: Mus musculus; assay: Relative effective concentration for Melanocortin-3 and Melanocortin-4 receptors
API doc: respond with a numeric literal and nothing else, no unit.

Reference set (5 entries):
{"SMILES INPUT": "C[C@@H]1NC(=O)[C@H](CC(N)=O)NC(=O)[C@H](Cc2ccc(-c3ccccc3)cc2)NC(=O)[C@H](CCCN=C(N)N)NC(=O)[C@@H](Cc2ccccc2)NC(=O)[C@H](Cc2c[nH]cn2)NC(=O)[C@@H](NC(=O)[C@@H](N)Cc2ccc(O)cc2)CC(=O)N([C@@H](Cc2ccc(O)cc2)C(N)=O)[C@@](C)(C(=O)O)NC(=O)[C@H](Cc2ccccc2)NC1=O", "MEASURE": "Selectivity ratio", "VALUE OBSERVED": 11}
{"SMILES INPUT": "C[C@@H]1NC(=O)[C@H](CC(N)=O)NC(=O)[C@H](Cc2c[nH]c3ccccc23)NC(=O)[C@H](CCCN=C(N)N)NC(=O)[C@@H](Cc2cccc3ccccc23)NC(=O)[C@H](Cc2c[nH]cn2)NC(=O)[C@@H](NC(=O)[C@@H](N)Cc2ccc(O)cc2)CC(=O)N([C@@H](Cc2ccc(O)cc2)C(N)=O)[C@@](C)(C(=O)O)NC(=O)[C@H](Cc2ccccc2)NC1=O", "MEASURE": "Selectivity ratio", "VALUE OBSERVED": 560}
{"SMILES INPUT": "C[C@@H]1NC(=O)[C@H](CC(N)=O)NC(=O)[C@H](Cc2c[nH]c3ccccc23)NC(=O)[C@H](C)NC(=O)[C@@H](Cc2ccccc2)NC(=O)[C@H](Cc2c[nH]cn2)NC(=O)[C@@H](NC(=O)[C@@H](N)Cc2ccc(O)cc2)CC(=O)N([C@@H](Cc2ccc(O)cc2)C(N)=O)[C@@](C)(C(=O)O)NC(=O)[C@H](Cc2ccccc2)NC1=O", "MEASURE": "Selectivity ratio", "VALUE OBSERVED": 730}
{"SMILES INPUT": "C[C@@H]1NC(=O)[C@H](CC(N)=O)NC(=O)[C@H](Cc2c[nH]c3ccccc23)NC(=O)[C@H](CCCN=C(N)N)NC(=O)[C@@H](Cc2ccc(-c3ccccc3)cc2)NC(=O)[C@H](Cc2c[nH]cn2)NC(=O)[C@@H](NC(=O)[C@@H](N)Cc2ccc(O)cc2)CC(=O)N([C@@H](Cc2ccc(O)cc2)C(N)=O)[C@@](C)(C(=O)O)NC(=O)[C@H](Cc2ccccc2)NC1=O", "MEASURE": "Selectivity ratio", "VALUE OBSERVED": 58}
{"SMILES INPUT": "C[C@@H]1NC(=O)[C@H](CC(N)=O)NC(=O)[C@H](C)NC(=O)[C@H](CCCN=C(N)N)NC(=O)[C@@H](Cc2ccccc2)NC(=O)[C@H](Cc2c[nH]cn2)NC(=O)[C@@H](NC(=O)[C@@H](N)Cc2ccc(O)cc2)CC(=O)N([C@@H](Cc2ccc(O)cc2)C(N)=O)[C@@](C)(C(=O)O)NC(=O)[C@H](Cc2ccccc2)NC1=O", "MEASURE": "Selectivity ratio", "VALUE OBSERVED": 19}

Requested read-out: Selectivity ratio. Entry: C[C@@H]1NC(=O)[C@H](CC(N)=O)NC(=O)[C@@H](Cc2ccc3ccccc3c2)NC(=O)[C@H](CCCN=C(N)N)NC(=O)[C@@H](Cc2ccccc2)NC(=O)[C@H](Cc2c[nH]cn2)NC(=O)[C@@H](NC(=O)[C@@H](N)Cc2ccc(O)cc2)CC(=O)N([C@@H](Cc2ccc(O)cc2)C(N)=O)[C@@](C)(C(=O)O)NC(=O)[C@H](Cc2ccccc2)NC1=O
10

Record: C[C@@H]1NC(=O)[C@H](CC(N)=O)NC(=O)[C@@H]2Cc3ccccc3CN2C(=O)[C@H](CCCN=C(N)N)NC(=O)[C@@H](Cc2ccccc2)NC(=O)[C@H](Cc2c[nH]cn2)NC(=O)[C@@H](NC(=O)[C@@H](N)Cc2ccc(O)cc2)CC(=O)N([C@@H](Cc2ccc(O)cc2)C(N)=O)[C@@](C)(C(=O)O)NC(=O)[C@H](Cc2ccccc2)NC1=O
13

Next molecule up: C[C@@H]1NC(=O)[C@H](CC(N)=O)NC(=O)[C@H](Cc2c[nH]c3ccccc23)NC(=O)[C@H](CCCN=C(N)N)NC(=O)[C@@H](Cc2ccccc2)NC(=O)[C@H](C)NC(=O)[C@@H](NC(=O)[C@@H](N)Cc2ccc(O)cc2)CC(=O)N([C@@H](Cc2ccc(O)cc2)C(N)=O)[C@@](C)(C(=O)O)NC(=O)[C@H](Cc2ccccc2)NC1=O
80

Also C[C@@H]1NC(=O)[C@H](CC(N)=O)NC(=O)[C@H](Cc2ccc3ccccc3c2)NC(=O)[C@H](CCCN=C(N)N)NC(=O)[C@@H](Cc2ccccc2)NC(=O)[C@H](Cc2c[nH]cn2)NC(=O)[C@@H](NC(=O)[C@@H](N)Cc2ccc(O)cc2)CC(=O)N([C@@H](Cc2ccc(O)cc2)C(N)=O)[C@@](C)(C(=O)O)NC(=O)[C@H](Cc2ccccc2)NC1=O ?
21

Follow-up item: C[C@@H]1NC(=O)[C@H](CC(N)=O)NC(=O)[C@H](Cc2c[nH]c3ccccc23)NC(=O)[C@H](CCCN=C(N)N)NC(=O)[C@@H](Cc2ccccc2)NC(=O)[C@H](Cc2c[nH]cn2)NC(=O)[C@@H](NC(=O)[C@@H](N)Cc2ccc(O)cc2)CC(=O)N([C@@H](Cc2ccc(O)cc2)C(N)=O)[C@@](C)(C(=O)O)NC(=O)[C@@H](Cc2ccccc2)NC1=O
21

====

molecular target: Melanocortin receptor 3 (Mus musculus, UniProt P33033); assay: Effective concentration for mouse Melanocortin-3 receptor
MEASURE: EC50 (µM)
Entry rule: numbers only, all in µM.

{"SMILES INPUT": "C[C@@H]1NC(=O)[C@H](CC(N)=O)NC(=O)[C@H](Cc2c[nH]c3ccccc23)NC(=O)[C@H](CCCN=C(N)N)NC(=O)[C@@H](Cc2ccc(-c3ccccc3)cc2)NC(=O)[C@H](Cc2c[nH]cn2)NC(=O)[C@@H](NC(=O)[C@@H](N)Cc2ccc(O)cc2)CC(=O)N([C@@H](Cc2ccc(O)cc2)C(N)=O)[C@@](C)(C(=O)O)NC(=O)[C@H](Cc2ccccc2)NC1=O", "EC50 / µM": 0.033}
{"SMILES INPUT": "C[C@@H]1NC(=O)[C@H](CC(N)=O)NC(=O)[C@H](Cc2c[nH]c3ccccc23)NC(=O)[C@H](CCCN=C(N)N)NC(=O)[C@@H]2CCCN2C(=O)[C@H](Cc2c[nH]cn2)NC(=O)[C@@H](NC(=O)[C@@H](N)Cc2ccc(O)cc2)CC(=O)N([C@@H](Cc2ccc(O)cc2)C(N)=O)[C@@](C)(C(=O)O)NC(=O)[C@H](Cc2ccccc2)NC1=O", "EC50 / µM": 13.2}

Please look at the following molecule next.
Fill in: EC50 of C[C@@H]1NC(=O)[C@H](CC(N)=O)NC(=O)[C@H](Cc2c[nH]c3ccccc23)NC(=O)[C@H](C)NC(=O)[C@@H](Cc2ccccc2)NC(=O)[C@H](Cc2c[nH]cn2)NC(=O)[C@@H](NC(=O)[C@@H](N)Cc2ccc(O)cc2)CC(=O)N([C@@H](Cc2ccc(O)cc2)C(N)=O)[C@@](C)(C(=O)O)NC(=O)[C@H](Cc2ccccc2)NC1=O is ___
23.8
